Target: 5-HT2c receptor (Homo sapiens)
Construct: purchased Perkin-Elmer or Euroscreen (named only as possible suppliers)
Sequence (P28335 33-458): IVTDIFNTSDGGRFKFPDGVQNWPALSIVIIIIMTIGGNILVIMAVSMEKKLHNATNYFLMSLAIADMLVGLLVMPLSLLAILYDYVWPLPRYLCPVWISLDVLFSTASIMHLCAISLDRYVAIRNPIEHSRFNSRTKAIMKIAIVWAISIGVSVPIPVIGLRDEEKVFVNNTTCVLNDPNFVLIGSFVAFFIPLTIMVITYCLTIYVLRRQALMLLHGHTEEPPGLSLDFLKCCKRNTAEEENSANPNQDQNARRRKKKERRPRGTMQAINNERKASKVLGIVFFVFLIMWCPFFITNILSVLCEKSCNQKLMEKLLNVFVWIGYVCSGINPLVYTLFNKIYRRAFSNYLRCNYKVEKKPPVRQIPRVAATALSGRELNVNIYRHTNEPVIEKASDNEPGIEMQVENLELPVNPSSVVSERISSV
Assay: 5-HT2c receptor binding assay (3H-mesulergine competition)
Conditions: 1 nM 3H-mesulergine; read-out: Ki (nM) binding data 5-HT2C
value type: Ki

A selection of reference data follows.
{"compound": "CC(=O)N1CCN(Cc2ccc3c(c2)CC[C@H](n2cnc4cc(-c5cccc(F)c5)sc4c2=O)C3)CC1", "readout value": "> 100000 nM"}
{"compound": "CS(=O)(=O)N1CCN(Cc2ccc3c(c2)CC[C@H](n2cnc4cc(-c5ccc(Cl)cc5)sc4c2=O)C3)CC1", "readout value": "> 100000 nM"}
{"compound": "CS(=O)(=O)CCNCc1ccc2c(c1)CC[C@H](n1cnc3cc(-c4ccc(Cl)cc4)sc3c1=O)C2", "readout value": "> 100000 nM"}
{"compound": "CN(C)Cc1ccc2c(c1)CC[C@H](n1cnc3cc(-c4ccc(Cl)cc4)sc3c1=O)C2", "readout value": "3170 nM"}
{"compound": "CS(=O)(=O)N1CCN(Cc2ccc3c(c2)CC[C@H](n2cnc4cc(-c5ccnc(Cl)c5)sc4c2=O)C3)CC1", "readout value": "> 100000 nM"}

Reported Ki of CS(=O)(=O)N1CCN(Cc2ccc3c(c2)CC[C@H](n2cnc4cc(-c5ccc(F)cc5F)sc4c2=O)C3)CC1 : > 100000 nM

Reported Ki of CS(=O)(=O)N1CCN(Cc2ccc3c(c2)CC[C@H](n2cnc4cc(-c5ccc(Cl)c(Cl)c5)sc4c2=O)C3)CC1 : > 100000 nM

Reported Ki of O=c1c2sc(-c3ccc(Cl)cc3)cc2ncn1[C@H]1CCc2cc(CN3CCCCC3)ccc2C1 : 3730 nM

Reported Ki of O=c1c2sc(-c3ccc(Cl)cc3)cc2ncn1[C@H]1CCc2cc(CN3CCS(=O)(=O)CC3)ccc2C1 : > 100000 nM

Reported Ki of CC(=O)N1CCN(Cc2ccc3c(c2)CC[C@H](n2cnc4cc(-c5ccncc5)sc4c2=O)C3)CC1 : 8090 nM

Reported Ki of O=c1c2sc(-c3ccc(Cl)cc3)cc2ncn1[C@H]1CCc2cc(CN3CCOCC3)ccc2C1 : > 100000 nM

Reported Ki of CC(=O)N1CCN(Cc2ccc3c(c2)CC[C@H](n2cnc4cc(-c5cccnc5)sc4c2=O)C3)CC1 : > 100000 nM

Reported Ki of CS(=O)(=O)C1CCN(Cc2ccc3c(c2)CC[C@H](n2cnc4cc(-c5ccc(Cl)cc5)sc4c2=O)C3)CC1 : > 100000 nM

Reported Ki of CS(=O)(=O)N1CCN(Cc2ccc3c(c2)CC[C@H](n2cnc4cc(-c5ccsc5)sc4c2=O)C3)CC1 : > 100000 nM

Reported Ki of CC(=O)N1CCN(Cc2ccc3c(c2)CC[C@H](n2cnc4cc(-c5ccc(C#N)cc5)sc4c2=O)C3)CC1 [(S)-4-(3-(6-((4-acetylpiperazin-1-yl)methyl)-1,2,3,4-tetrahy] : > 100000 nM

Reported Ki of CC(=O)N1CCN(Cc2ccc3c(c2)CC[C@H](n2cnc4cc(-c5ccc(F)c(F)c5)sc4c2=O)C3)CC1 : > 100000 nM

Reported Ki of CC(=O)N1CCN(Cc2ccc3c(c2)CC[C@H](n2cnc4cc(-c5ccsc5)sc4c2=O)C3)CC1 : 2010 nM

Reported Ki of COc1ncccc1-c1cc2ncn([C@H]3CCc4cc(CN5CCN(S(C)(=O)=O)CC5)ccc4C3)c(=O)c2s1 : > 100000 nM

Reported Ki of CC(=O)N1CCN(Cc2ccc3c(c2)CC[C@H](n2cnc4cc(-c5ccc(Cl)cc5)sc4c2=O)C3)CC1 : 14600 nM

Reported Ki of CC(=O)N1CCN(Cc2ccc3c(c2)CC[C@H](n2cnc4cc(-c5ccc(F)cc5)sc4c2=O)C3)CC1 : 6360 nM

Reported Ki of CC(=O)N1CCN(Cc2ccc3c(c2)CC[C@H](n2cnc4cc(-c5ccc(C)cc5)sc4c2=O)C3)CC1 : 5460 nM

Reported Ki of CC(=O)N1CCN(Cc2ccc3c(c2)CC[C@H](n2cnc4cc(-c5ccc(C#N)cc5)sc4c2=O)C3)CC1 : > 100000 nM

Reported Ki of CS(=O)(=O)N1CCN(Cc2ccc3c(c2)CC[C@H](n2cnc4cc(-c5cccnc5)sc4c2=O)C3)CC1 : > 100000 nM
